Biological target: UniProt:P00519
Sequence (P00519 whole entry): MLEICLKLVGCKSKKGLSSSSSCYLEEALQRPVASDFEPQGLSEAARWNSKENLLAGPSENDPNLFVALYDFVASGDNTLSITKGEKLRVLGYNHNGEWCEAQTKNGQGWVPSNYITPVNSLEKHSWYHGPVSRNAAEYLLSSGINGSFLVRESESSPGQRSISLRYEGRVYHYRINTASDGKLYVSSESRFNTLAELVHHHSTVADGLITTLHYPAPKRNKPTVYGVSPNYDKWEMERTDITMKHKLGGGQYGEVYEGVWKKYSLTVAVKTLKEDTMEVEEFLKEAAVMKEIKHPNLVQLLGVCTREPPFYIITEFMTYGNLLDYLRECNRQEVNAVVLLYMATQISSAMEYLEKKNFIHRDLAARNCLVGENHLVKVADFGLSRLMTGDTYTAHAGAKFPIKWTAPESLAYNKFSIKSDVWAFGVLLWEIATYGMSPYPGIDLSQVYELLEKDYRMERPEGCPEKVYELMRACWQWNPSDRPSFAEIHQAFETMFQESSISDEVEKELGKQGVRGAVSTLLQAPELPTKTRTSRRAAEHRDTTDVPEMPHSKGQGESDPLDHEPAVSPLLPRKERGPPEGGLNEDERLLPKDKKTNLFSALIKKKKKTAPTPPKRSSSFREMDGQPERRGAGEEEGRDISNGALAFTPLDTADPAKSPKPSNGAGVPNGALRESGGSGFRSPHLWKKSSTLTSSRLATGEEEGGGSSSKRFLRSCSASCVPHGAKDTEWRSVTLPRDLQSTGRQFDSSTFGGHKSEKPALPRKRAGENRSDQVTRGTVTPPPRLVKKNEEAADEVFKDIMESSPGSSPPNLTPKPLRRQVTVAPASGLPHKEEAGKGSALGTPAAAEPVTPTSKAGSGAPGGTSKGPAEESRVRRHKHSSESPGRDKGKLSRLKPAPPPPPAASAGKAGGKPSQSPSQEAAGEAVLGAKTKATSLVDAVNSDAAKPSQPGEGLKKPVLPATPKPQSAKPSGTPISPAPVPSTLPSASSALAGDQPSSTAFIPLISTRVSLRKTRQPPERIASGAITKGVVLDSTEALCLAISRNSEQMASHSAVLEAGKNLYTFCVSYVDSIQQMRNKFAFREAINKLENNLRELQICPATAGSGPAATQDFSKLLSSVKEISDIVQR
Assay: Inhibition of ABL1 (unknown origin) at 50 nM by Z'LYTE screening method relative to control
property.measured: inhibition (%)
Give bare numbers, in %.

* O=c1c2ccccc2[se]n1-c1nc(N[C@H]2CC[Se]C2)c2nc[nH]c2n1 | 1
* O=c1c2ccccc2[se]n1-c1nc(Nc2ccccc2)c2nc[nH]c2n1 | 0
* O=c1c2ccccc2[se]n1-c1nc(N[C@H]2CCOC2)c2nc[nH]c2n1 | 8

// each listed compound needs a value for inhibition
1. CCCNc1nc(-n2[se]c3ccccc3c2=O)nc2[nH]cnc12
2. C[C@@H]1[C@H]2C[C@@H](C[C@H]1Nc1nc(-n3[se]c4ccccc4c3=O)nc3[nH]cnc13)C2(C)C

[reply]
1: 0; 2: 1

---

Target: Aurora kinase C (Homo sapiens) (UniProt Q9UQB9)
Sequence (whole entry): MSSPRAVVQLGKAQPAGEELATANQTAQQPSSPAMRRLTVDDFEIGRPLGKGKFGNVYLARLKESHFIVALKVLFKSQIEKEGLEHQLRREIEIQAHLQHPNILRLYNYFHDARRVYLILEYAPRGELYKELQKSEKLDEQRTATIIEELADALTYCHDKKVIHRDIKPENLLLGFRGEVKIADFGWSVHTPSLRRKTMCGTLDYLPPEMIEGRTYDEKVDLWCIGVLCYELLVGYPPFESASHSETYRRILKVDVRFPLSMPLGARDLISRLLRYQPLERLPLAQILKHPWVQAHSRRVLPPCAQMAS
Assay: Inhibition of AURC (unknown origin) at 50 nM by Z'LYTE screening method relative to control
property.measured: inhibition (%)
Answers are plain numbers, in %.

- O=c1c2ccccc2[se]n1-c1nc(NC2CCCCC2)c2nc[nH]c2n1: 13
- O=c1c2ccccc2[se]n1-c1nc(N[C@H]2CCOC2)c2nc[nH]c2n1: 1
- O=c1c2ccccc2[se]n1-c1nc(N[C@@H]2C[C@H]3CC[C@@H]2C3)c2nc[nH]c2n1: 9
- O=C1c2ccccc2CN1c1nc(N[C@H]2CC[Se]C2)c2nc[nH]c2n1: 13
- O=c1c2ccccc2[se]n1-c1nc(Nc2ccccc2)c2nc[nH]c2n1: 6
- CCCNc1nc(-n2[se]c3ccccc3c2=O)nc2[nH]cnc12: 6
- O=c1c2ccccc2[se]n1-c1nc(N[C@H]2CC[Se]C2)c2nc[nH]c2n1: 0
- C[C@@H]1[C@H]2C[C@@H](C[C@H]1Nc1nc(-n3[se]c4ccccc4c3=O)nc3[nH]cnc13)C2(C)C: 11

// each listed compound needs a value for inhibition
1. CCN(CC)CCCC(C)Nc1nc(-n2[se]c3ccccc3c2=O)nc2[nH]cnc12 (configuration not stated)
2. O=C1c2ccccc2CN1c1nc(NC2CCCCC2)c2nc[nH]c2n1
3. CCN(CC)CCCC(C)Nc1nc(N2Cc3ccccc3C2=O)nc2[nH]cnc12 (configuration not stated)
4. O=C1c2ccccc2CN1c1nc(NC2CCCC2)c2nc[nH]c2n1

[reply]
1. 7
2. 9
3. 10
4. 1

---

Biological target: RAC-alpha serine/threonine-protein kinase (Homo sapiens)
Assay: Inhibition of AKT1 (unknown origin) at 50 nM by Z'LYTE screening method relative to control
Assignment: determine reported inhibition for the given molecules.
Give bare numbers, in %.

// each listed molecule needs a value for inhibition
1. O=c1c2ccccc2[se]n1-c1nc(N[C@@H]2C[C@H]3CC[C@@H]2C3)c2nc[nH]c2n1
2. O=c1c2ccccc2[se]n1-c1nc(Nc2ccccc2)c2nc[nH]c2n1
3. CCN(CC)CCCC(C)Nc1nc(N2Cc3ccccc3C2=O)nc2[nH]cnc12 (stereo not drawn)
4. O=c1c2ccccc2[se]n1-c1nc(NC2CCCCC2)c2nc[nH]c2n1
5. O=C1c2ccccc2CN1c1nc(N[C@H]2CC[Se]C2)c2nc[nH]c2n1

[reply]
[0, 2, 2, 2, 1]

// each listed molecule needs a value for inhibition
1. CCCNc1nc(-n2[se]c3ccccc3c2=O)nc2[nH]cnc12
2. O=C1c2ccccc2CN1c1nc(NC2CCCCC2)c2nc[nH]c2n1

[reply]
[2, 2]

Short answer on RAC-alpha serine/threonine-protein kinase (Homo sapiens) for O=c1c2ccccc2[se]n1-c1nc(N[C@H]2CCOC2)c2nc[nH]c2n1 , inhibition: 1

Recorded values, source ChEMBL document CHEMBL5154740.
